Data origin: paper PMC9775191

System: G. duodenalis BRIS/91/HEPU/1279
Assay: Primary Giardia screen at 10 µM (live-cell imaging, automated counting)
Type: cell-based, Giardia duodenalis
Details: 48 h, first singlicate assay
Categories are defined by ranges of % Inhibition n=1 48h, namely one (below 5%), two (5% to below 20%), three (20% or more)

COMPOUND | LABEL CLASS
Cc1ccc(CNC(=O)N2CCCN(C3CCN(CC4CC4)C3=O)CC2)cc1 (stereo not drawn) | two
O=c1n(Cc2ccc(F)cc2)nnn1-c1ccccc1 | three
Cc1cccc(-n2c(CN3CCN(C(=O)NCC4CCCO4)CC3)nc3cccnc32)c1 (stereo not drawn) | one
CC1CC(C)CN(C(=O)Cn2cnc3c(nc4n3CCCCC4)c2=O)C1 (stereo not drawn) | one
CCCCN(CCCC)S(=O)(=O)c1ccc2c(c1)CCCC(=O)N2 | three
Cc1ccc(NC(=O)c2cc3c(=O)n(CC(C)C)ccc3n2C)cc1 | two
COc1ccccc1N1CCN(C(=O)c2ccc3[nH]c(C)c(C)c3c2)CC1 | three
O=C(c1cnccn1)N1CCCC1c1nc(-c2ccccc2)no1 (stereo not drawn) | one
CCCCn1c(=O)[nH]c(=O)c2c1nc(-c1ccc(-c3cccc([N+](=O)[O-])c3)o1)n2CC | three
COc1ccc(-c2ccnc3c(C(=O)NCc4ccc5c(c4)OCO5)cnn23)cc1OC | two
CCOc1cc(F)ccc1NC(=O)N1CCCC(N2CCCC2=O)C1 (stereo not drawn) | two
O=S(=O)(c1ccc(Cl)cc1)N1CCC(c2nc(-c3c(Cl)cccc3Cl)no2)CC1 | two
O=C1CCCN1CC1CCCCN1c1cc(Cl)c(C(F)(F)F)cc1[N+](=O)[O-] (stereo not drawn) | two
Cc1cc(C(F)(F)F)nn1CC(=O)Nc1cc(Oc2cccnc2)cc([N+](=O)[O-])c1 | three
Cc1ccc(-c2cc3nc(C)cc(N4CCC(C(=O)NCCCN5CCCC5)CC4)n3n2)cc1 | two
CC1(C(=O)N2CCCC(CN3CCOCC3)C2)CC1(Cl)Cl (stereo not drawn) | two

###

Entries and their IC50
Tested on: G. duodenalis BRIS/91/HEPU/1279
Test: Giardia dose response assay, assemblage B
Assay type: cell-based, Giardia duodenalis
Details: Giardia duodenalis, 24 h, read-out: G. duodenalis IC50 24h, Table S2; 24 h; ±SD; max 10 µM

COMPOUND | IC50
CCc1nnc2c3ccccc3nc(N3CCN(c4cccc(Cl)c4)CC3)n12 [SN00788523] | > 10 µM
Cc1nn(-c2ccccc2)c2sc(C(=O)N3CCCCC3)cc12 [SN00783575, O=C(N1CCCCC1)c1cc2c(C)nn(c3ccccc3)c2s1] | > 10 µM
COc1cc(OC)c(C2=CCN(C(=O)c3ccc(C)s3)CC2)c(OC)c1 [SN00769982] | > 10 µM

###

Test system: Klebsiella pneumoniae (ATCC 700603)
Assay: Anti-bacterial activity assay
Type: cell-based
Details: ATCC700603, 50 µM, read-out: Bacterial Inhibition K. pneumoniae
ASSAY READOUT: inhibition at 50 µM (%)

COMPOUND | UNITS | MEASUREMENT
O=C(NC1CCCCC1)c1nc(Nc2ccccc2)c2ccccc2n1 | % | 12.6
CC(=O)Nc1ccc([N+](=O)[O-])c2nonc12 | % | 19.9
COc1cc(OC)c(C2=CCN(C(=O)c3ccc(C)s3)CC2)c(OC)c1 | % | 15.6
Cn1nccc1-c1cccc(-c2noc(-c3cccc(F)c3)n2)c1 | % | 9.56
